Origin of the recorded values: patent US20110098296A1

Each entry below carries its reported pIC50.
System: A375P F11s tumor cells
assaySummary: Method C: Cell Growth Inhibition Assay (CellTiter-Glo), A375P F11s
Format: cell-based
runConditions: Homo sapiens, 72 h, 3 days, 4-parameter fit
pIC50: −log10 of the molar value. Where a name gives a salt, the structure may show the parent alone.

compound=Nc1nc(-c2cccc(C(=O)Nc3c(F)cccc3F)c2)c(-c2ccnc(Nc3cccc(CN4CCCC4)c3)n2)s1 systemtested="A375P F11s tumor cells" observedmeasurement="6.00 to 7.00"

Tell me pIC50 of CN1CCc2ccc(Nc3nccc(-c4sc(N)nc4-c4cccc(NC(=O)c5c(F)cccc5F)c4)n3)cc2C1 [Example 10, trifluoroacetate] when tested on A375P F11s tumor cells. 6.00 to 7.00

Tell me pIC50 of CC(=O)Nc1nc(-c2cccc(NC(=O)c3c(F)cccc3F)c2)c(-c2ccnc(Nc3cccc(CN4CCCC4)c3)n2)s1 when tested on A375P F11s tumor cells. 6.00 to 7.00

Tell me pIC50 of Cc1nc(-c2cccc(NC(=O)c3ccc(F)cc3)c2)c(-c2ccnc(Nc3ccc(OCCN(C)C)c(Cl)c3)n2)s1 when tested on A375P F11s tumor cells. < 6.00

Tell me pIC50 of CN(C)CCOc1cccc(Nc2nccc(-c3sc(N4CCCCC4)nc3-c3cccc(NC(=O)c4c(F)cccc4F)c3)n2)c1 when tested on A375P F11s tumor cells. 6.00 to 7.00

Tell me pIC50 of CN1CCc2ccc(Nc3nccc(-c4sc(NCCCN5CCOCC5)nc4-c4cccc(NC(=O)c5c(F)cccc5F)c4)n3)cc2C1 when tested on A375P F11s tumor cells. 6.00 to 7.00

Tell me pIC50 of CN1CCc2ccc(Nc3nccc(-c4sc(N5CCCC5)nc4-c4cccc(NC(=O)c5c(F)cccc5F)c4)n3)cc2C1 when tested on A375P F11s tumor cells. < 6.00

---

systemTested: ErbB2 (Homo sapiens, UniProt P04626)
Construct: made in house; host or cells: baculovirus expression system
Sequence (P04626 23-1255): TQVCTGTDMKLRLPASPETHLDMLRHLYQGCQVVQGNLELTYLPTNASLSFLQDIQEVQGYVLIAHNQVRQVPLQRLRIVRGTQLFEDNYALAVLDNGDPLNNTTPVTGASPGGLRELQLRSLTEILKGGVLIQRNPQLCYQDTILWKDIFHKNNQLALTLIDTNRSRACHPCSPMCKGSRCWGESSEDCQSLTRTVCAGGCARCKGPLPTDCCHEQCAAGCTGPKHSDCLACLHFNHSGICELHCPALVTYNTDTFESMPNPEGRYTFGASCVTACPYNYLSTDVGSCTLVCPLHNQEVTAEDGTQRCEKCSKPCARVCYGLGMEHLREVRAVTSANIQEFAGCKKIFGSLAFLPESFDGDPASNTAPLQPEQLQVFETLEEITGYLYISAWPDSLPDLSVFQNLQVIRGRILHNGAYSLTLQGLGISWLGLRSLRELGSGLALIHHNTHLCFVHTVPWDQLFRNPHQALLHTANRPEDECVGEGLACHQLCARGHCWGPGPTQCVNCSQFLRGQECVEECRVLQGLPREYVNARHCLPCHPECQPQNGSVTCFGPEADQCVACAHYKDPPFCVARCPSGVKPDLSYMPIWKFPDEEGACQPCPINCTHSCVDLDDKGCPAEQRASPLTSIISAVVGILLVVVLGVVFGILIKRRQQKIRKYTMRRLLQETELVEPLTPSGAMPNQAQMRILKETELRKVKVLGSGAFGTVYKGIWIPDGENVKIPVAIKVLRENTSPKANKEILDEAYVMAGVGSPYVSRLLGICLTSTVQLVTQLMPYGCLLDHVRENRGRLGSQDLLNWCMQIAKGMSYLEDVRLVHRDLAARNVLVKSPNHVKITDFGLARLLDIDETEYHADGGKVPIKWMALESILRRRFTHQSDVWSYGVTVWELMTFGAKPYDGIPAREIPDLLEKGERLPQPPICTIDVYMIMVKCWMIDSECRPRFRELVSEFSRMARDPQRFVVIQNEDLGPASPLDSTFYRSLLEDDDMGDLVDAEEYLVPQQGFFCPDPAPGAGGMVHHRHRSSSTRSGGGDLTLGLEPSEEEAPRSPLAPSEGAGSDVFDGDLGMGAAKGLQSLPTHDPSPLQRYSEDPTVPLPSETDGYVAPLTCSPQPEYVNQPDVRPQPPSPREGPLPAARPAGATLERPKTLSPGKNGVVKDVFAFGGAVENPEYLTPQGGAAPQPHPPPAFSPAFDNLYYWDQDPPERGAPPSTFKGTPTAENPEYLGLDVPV
assaySummary: ErbB-2 substrate phosphorylation assay (HTRF)
Assay type: biochemical
runConditions: Method (A): Enzyme Mix incubated with compound at 20° C. for 1 hr, reaction started by adding Substrate Mix
pIC50: −log10 of the molar value.
Each entry below carries its reported pIC50.

compound="Cc1nc(-c2cccc(NC(=O)Nc3ccc(Cl)c(C(F)(F)F)c3)c2)c(-c2ccnc(Nc3ccc(OCCN(C)C)c(Cl)c3)n2)s1 [Example 133]" observedmeasurement="6.00 to 7.00"
compound="CN(C)CCOc1ccc(Nc2nccc(-c3sc(NS(=O)(=O)CC(F)(F)F)nc3-c3cccc(NC(=O)c4c(F)cccc4F)c3)n2)cc1 [Example 35]" observedmeasurement="> 7.00"
compound="CC(=O)Nc1nc(-c2cccc(NC(=O)c3c(F)cccc3F)c2)c(-c2ccnc(Nc3cccc(CN4CCCC4)c3)n2)s1 [Example 34]" observedmeasurement="> 7.00"
compound="CN(C)CCOc1ccc(Nc2nccc(-c3sc(N4CCN(C)CC4)nc3-c3cccc(NC(=O)c4c(F)cccc4F)c3)n2)cc1Cl [Example 45]" observedmeasurement="> 7.00"
compound="COc1ccc(Nc2nccc(-c3sc(N)nc3-c3cccc(NC(=O)c4c(F)cccc4F)c3)n2)cc1N1CCNCC1 [Example 18]" observedmeasurement="> 7.00"

Identify measured pIC50 associated with COc1cc(Nc2nccc(-c3sc(N)nc3-c3cccc(NC(=O)c4c(F)cccc4F)c3)n2)cc(OC)c1OC [Example 16] > 7.00

Identify measured pIC50 associated with CN(C)C1Cc2ccc(Nc3nccc(-c4scnc4-c4cccc(NC(=O)Cc5cccs5)c4)n3)cc2C1 (stereo not shown) [Example 83] > 7.00
